- tested_target: Bromodomain-containing protein 4 (Homo sapiens, UniProt O60885)
- method_description: Inhibition of BRD4 (unknown origin) incubated for 120 mins by TR-FRET assay
quantity_measured: pIC50
Expect pIC50 as a plain number equal to -log10 of the molar concentration.

Reported pIC50 (Bromodomain-containing protein 4 (Homo sapiens, UniProt O60885)) for entry "CCN(CC)c1ccc2nc3c(cc(NCc4ccc(NC(=O)C[C@H]5N=C(c6ccc(Cl)cc6)c6c(sc(C)c6C)-n6c(C)nnc65)cc4)c4ccccc43)[s+]c2c1.[Cl-]" is 7.35
